experimental.target: (α4C254S)3(β2)2 nAChR (Homo sapiens, UniProt P17787+P43681, C254S)
Construct: expressed in transfected cells; host or cells: Xenopus laevis oocytes injected with cRNA
Sequence (P43681 29-627 C254S limits assumed): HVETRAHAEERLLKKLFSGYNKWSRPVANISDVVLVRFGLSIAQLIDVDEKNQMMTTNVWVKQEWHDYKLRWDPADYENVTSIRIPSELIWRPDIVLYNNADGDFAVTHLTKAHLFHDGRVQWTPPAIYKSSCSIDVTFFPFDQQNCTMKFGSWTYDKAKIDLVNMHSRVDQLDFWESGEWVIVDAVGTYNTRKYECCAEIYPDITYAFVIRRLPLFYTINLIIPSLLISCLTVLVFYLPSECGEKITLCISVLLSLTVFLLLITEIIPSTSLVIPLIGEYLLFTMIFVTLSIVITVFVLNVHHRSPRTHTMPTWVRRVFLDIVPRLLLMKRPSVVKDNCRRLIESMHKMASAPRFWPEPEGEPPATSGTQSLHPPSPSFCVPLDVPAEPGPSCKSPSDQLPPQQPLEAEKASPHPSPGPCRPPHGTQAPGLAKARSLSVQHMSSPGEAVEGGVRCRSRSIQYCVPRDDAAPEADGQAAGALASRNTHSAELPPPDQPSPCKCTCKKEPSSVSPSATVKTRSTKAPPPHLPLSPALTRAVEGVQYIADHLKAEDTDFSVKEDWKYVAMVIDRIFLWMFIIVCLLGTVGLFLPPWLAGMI
Sequence (P17787 26-502): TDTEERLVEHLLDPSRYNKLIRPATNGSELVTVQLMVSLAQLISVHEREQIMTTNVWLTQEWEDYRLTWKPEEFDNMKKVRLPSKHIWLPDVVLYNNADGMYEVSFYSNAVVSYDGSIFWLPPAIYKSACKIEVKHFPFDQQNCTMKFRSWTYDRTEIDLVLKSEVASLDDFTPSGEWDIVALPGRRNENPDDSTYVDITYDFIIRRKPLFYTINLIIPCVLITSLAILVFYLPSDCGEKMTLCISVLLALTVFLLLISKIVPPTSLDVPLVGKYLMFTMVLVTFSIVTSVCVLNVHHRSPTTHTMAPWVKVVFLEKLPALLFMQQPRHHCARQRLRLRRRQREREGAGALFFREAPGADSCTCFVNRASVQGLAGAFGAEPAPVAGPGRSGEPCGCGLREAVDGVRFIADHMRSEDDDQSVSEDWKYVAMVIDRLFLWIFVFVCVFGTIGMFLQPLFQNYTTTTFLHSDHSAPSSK
test.description: Two-electrode voltage-clamp of ACh-induced currents in Xenopus oocytes
Assay type: cell-based
particulars: read-out: LY2087101 potentiation EC50
assay.endpoint: EC50 (nM)
Please reply with the bare figure in nM and do not write the unit itself.

INPUT: Request - read-out EC50 | tested on (α4C254S)3(β2)2 nAChR (Homo sapiens, UniProt P17787+P43681, C254S) | compound Cc1nc(Nc2ccc(F)cc2)sc1C(=O)c1ccsc1
OUTPUT: 1700

* * *

experimental.target: (α4H332Y)3(β2)2 nAChR (Homo sapiens, UniProt P17787+P43681, H332Y)
Sequence (P43681 29-627 H332Y limits assumed, one chain of several): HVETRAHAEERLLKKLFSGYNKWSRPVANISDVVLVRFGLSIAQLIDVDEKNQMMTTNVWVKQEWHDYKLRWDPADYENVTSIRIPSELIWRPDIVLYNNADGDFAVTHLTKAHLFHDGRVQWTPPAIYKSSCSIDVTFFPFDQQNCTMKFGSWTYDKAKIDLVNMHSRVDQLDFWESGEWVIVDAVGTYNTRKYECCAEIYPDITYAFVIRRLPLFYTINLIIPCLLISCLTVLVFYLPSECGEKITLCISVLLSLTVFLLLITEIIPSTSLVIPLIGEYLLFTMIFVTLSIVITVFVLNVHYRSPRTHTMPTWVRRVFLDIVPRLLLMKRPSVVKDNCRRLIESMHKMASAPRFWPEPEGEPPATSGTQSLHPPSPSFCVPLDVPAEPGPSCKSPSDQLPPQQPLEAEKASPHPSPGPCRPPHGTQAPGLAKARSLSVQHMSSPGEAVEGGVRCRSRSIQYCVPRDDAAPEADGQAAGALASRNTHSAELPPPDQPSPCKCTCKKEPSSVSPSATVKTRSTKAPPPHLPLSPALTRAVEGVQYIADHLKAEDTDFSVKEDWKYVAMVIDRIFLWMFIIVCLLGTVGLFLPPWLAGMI
test.description: Two-electrode voltage-clamp of ACh-induced currents in Xenopus oocytes
particulars: read-out: LY2087101 potentiation EC50
assay.endpoint: pEC50
# reply with the number alone; pEC50 is -log10 of concentration in mol/L

INPUT: // pEC50 lookup, key: Cc1nc(Nc2ccc(F)cc2)sc1C(=O)c1ccsc1
OUTPUT: 5.89

Source listed as paper PMC5775429.
